B1: FAM50A (parent)
chain: HIFPASRWEPYDPEKKWDKYTIR

# Variants of: B1
# method-description: protein stability index of a GFP-peptide fusion (GPS, HEK-293T) (PSI 1-6); higher = more stable;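 further: lentivirally expressed fusions sorted by FACS into six bins by GFP to DsRed ratio, PSI derived from sequencing read proportions per bin multiplied by bin number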
# details: c terminus: native
Would you mind telling me the reported protein stability index of each entry?

Before answering, review these 2 worked examples.
1. HIFPASRWEPYDPEKKWDKYTIA | 3.17
2. HIFPASRWEPYDPEKCWDKYTIR | 1.96

Each variant below has a reported value. Please supply its protein stability index.
1. HNFPASRWEPYDPEKKWDKYTIR
2. HIFPASRWEPYDPEKKWCKYTIR
3. HIFPASRWEHYDPEKKWDKYTIR
4. HIFPASRWEPYDPEKKWDKMTIR
5. HIFPASRGEPYDPEKKWDKYTIR

[3.19, 2.61, 2.88, 2.2, 3.72]

Each variant below has a reported value. Please supply its protein stability index.
1. HIFPASRWEPGDPEKKWDKYTIR
2. HIFPASRWEPYHPEKKWDKYTIR
3. HIFPASRWEPCDPEKKWDKYTIR
4. HIFPASRWEMYDPEKKWDKYTIR
5. GIFPASRWEPYDPEKKWDKYTIR
6. HIFPASRAEPYDPEKKWDKYTIR
7. HIFPASRWEPYLPEKKWDKYTIR
8. HIFPASRTEPYDPEKKWDKYTIR

1: 3.04; 2: 2.98; 3: 2.48; 4: 1.82; 5: 3.23; 6: 3.29; 7: 1.83; 8: 4.03

Each variant below has a reported value. Please supply its protein stability index.
1. HIFPASRWEPYDPEKKWDKATIR
2. HIIPASRWEPYDPEKKWDKYTIR
3. HIFPASRYEPYDPEKKWDKYTIR
4. HIFPASRWEPYDPEKKWDNYTIR
5. HIFPASRWNPYDPEKKWDKYTIR
6. HIFPASRWEPYDPEKKWMKYTIR
7. HIFPASRWEPYDPEKKWPKYTIR

1.86
2.57
2.5
2.52
2.05
1.92
2.99

Each variant below has a reported value. Please supply its protein stability index.
1. HIFPASRNEPYDPEKKWDKYTIR
2. HIFPASVWEPYDPEKKWDKYTIR

1: 3.88; 2: 2.48
